Molecular target: Human immunodeficiency virus type 1 protease (Human immunodeficiency virus 1)
Assay: Inhibition of HIV-1 protease in 5%DMSO
Experimental endpoint: IC50 (µM)
Use µM as the unit, but write only the number.

Here's what some known entries look like.
Form: compound = CC1=C(CCC(=O)O)c2cc3[nH]c(cc4[nH]c(cc5nc(cc1n2)C(C)=C5C(COC(=O)C1=CCC1)OC(=O)C1=CCC1)c(C)c4C(COC(=O)C1=CCC1)OC(=O)C1=CCC1)c(C)c3CCC(=O)O (centres undefined) ; IC50 = 0.7

Form: compound = CC1=C(C(COC(=O)c2ccc(N(C)C)cc2)OC(=O)c2ccc(N(C)C)cc2)c2cc3nc(cc4[nH]c(cc5[nH]c(cc1n2)c(C)c5CCC(=O)O)c(CCC(=O)O)c4C)C(C(COC(=O)c1ccc(N(C)C)cc1)OC(=O)c1ccc(N(C)C)cc1)=C3C (centres undefined) ; IC50 = 7

# evaluate next
Form: compound = CC1=C(CCC(=O)O)c2cc3[nH]c(cc4[nH]c(cc5nc(cc1n2)C(C)=C5C(COC(=O)C1=CC1)OC(=O)C1=CC1)c(C)c4C(COC(=O)C1=CC1)OC(=O)C1=CC1)c(C)c3CCC(=O)O (stereo in doubt) ; IC50 = 12
